Measured Kd accompanies every entry in the list below.
- Target Desc: anti-T4 antibody Fab fragment
- Test Protocol: Native MS (ESI FT-ICR) ligand competition with T2 as low-affinity reference ligand
- Format: binding, mouse
- Assay Setup: T4/T2 0.14/0.5 μM, T3/T2 0.14/0.5 μM, T0/T2 15/0.05 μM; 0.1 μM Fab; read-out: Kd (self-validation at second ligand concentrations)
// return numeric value only (unit: µM, not printed)

Chemical String: N[C@@H](Cc1ccc(Oc2ccc(O)cc2)cc1)C(=O)O
Reported Value: 174

(Q) If you can, please state the reported Kd value of N[C@@H](Cc1cc(I)c(Oc2cc(I)c(O)c(I)c2)c(I)c1)C(=O)O .
(A) 0.0239
